Every entry's value here was drawn from the supplement of paper PMC7877785.

# RUN_DESCRIPTION: self-splicing fitness, log relative to wild type (ln ratio); higher = more splicing; Tetrahymena group I intron in knt gene, E. coli kanamycin selection, DiMSum; sequences stand for … in CUCUCU…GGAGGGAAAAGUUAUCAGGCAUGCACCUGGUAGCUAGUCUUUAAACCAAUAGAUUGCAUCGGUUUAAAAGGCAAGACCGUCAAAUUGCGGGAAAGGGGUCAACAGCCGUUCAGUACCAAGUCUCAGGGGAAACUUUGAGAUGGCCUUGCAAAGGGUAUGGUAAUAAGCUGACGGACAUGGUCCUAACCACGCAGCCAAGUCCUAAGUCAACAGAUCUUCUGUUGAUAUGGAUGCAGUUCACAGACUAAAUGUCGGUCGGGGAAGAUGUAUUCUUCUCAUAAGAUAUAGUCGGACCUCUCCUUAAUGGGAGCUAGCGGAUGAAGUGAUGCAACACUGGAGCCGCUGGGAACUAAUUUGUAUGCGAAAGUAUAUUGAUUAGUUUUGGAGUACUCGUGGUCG;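 further: selection with 25 µg/mL kanamycin versus none on LB agar overnight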
# MEASUREMENT_PARAMETERS: 30 °C
Criterion: self-splicing fitness (ln) meeting or surpassing -2. Met: 1. Not met: 0.

SEQUENCE_RECORD | LABEL
AAUGAGCAAUAUUACGACAC | 0
AUCUAGCAAUAUUACGGGAG | 1
ACUCAGCAAUAUUACGACCG | 1
GGUCAGCAAUAUUACGUCUC | 1
GAGGAGCAAUAUUACGACUA | 1
AUGCAGCAAUAUUACGAAGG | 0

Could you tell me if the measured self-splicing fitness (ln) of UGGAAGCAAUAUUACGGUCG reaches -2 or more?
1

Could you tell me if the measured self-splicing fitness (ln) of GUUGAGCAAUAUUACGGGUA reaches -2 or more?
0

Could you tell me if the measured self-splicing fitness (ln) of CUCUAGCAAUAUUACGGCCG reaches -2 or more?
0

Could you tell me if the measured self-splicing fitness (ln) of CGCCAGCAAUAUUACGUGGU reaches -2 or more?
0

Could you tell me if the measured self-splicing fitness (ln) of GUACAGCAAUAUUACGCGCG reaches -2 or more?
1

Could you tell me if the measured self-splicing fitness (ln) of GAUAAGCAAUAUUACGGGAA reaches -2 or more?
0

Could you tell me if the measured self-splicing fitness (ln) of AAAGAGCAAUAUUACGACCG reaches -2 or more?
0

Could you tell me if the measured self-splicing fitness (ln) of GCACAGCAAUAUUACGGUCC reaches -2 or more?
1

Could you tell me if the measured self-splicing fitness (ln) of AUGGAGCAAUAUUACGGAUA reaches -2 or more?
0

###

# RUN_DESCRIPTION: self-splicing fitness, log relative to wild type (ln ratio); higher = more splicing; Tetrahymena group I intron in knt gene, E. coli kanamycin selection, DiMSum; sequences stand for … in CUCUCU…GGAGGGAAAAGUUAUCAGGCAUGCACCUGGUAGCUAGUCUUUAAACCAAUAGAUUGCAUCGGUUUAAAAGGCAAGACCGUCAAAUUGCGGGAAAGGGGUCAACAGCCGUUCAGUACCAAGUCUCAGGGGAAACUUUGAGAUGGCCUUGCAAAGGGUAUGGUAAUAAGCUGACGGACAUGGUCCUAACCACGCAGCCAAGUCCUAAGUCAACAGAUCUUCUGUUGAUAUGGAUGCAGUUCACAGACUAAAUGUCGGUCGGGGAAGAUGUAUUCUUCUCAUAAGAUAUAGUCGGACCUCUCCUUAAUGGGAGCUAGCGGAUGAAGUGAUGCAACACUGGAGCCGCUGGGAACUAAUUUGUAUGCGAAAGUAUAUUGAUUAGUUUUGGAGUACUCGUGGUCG
# MEASUREMENT_PARAMETERS: 30 °C
Criterion: self-splicing fitness (ln) meeting or surpassing -2. Met: 1 (yes). Not met: 0 (no).

# example entries with known answers
SEQUENCE_RECORD | LABEL
CGUUAGCAAUAUUACGACCU | 1 (yes)
UAAUAGCAAUAUUACGGCAU | 0 (no)
GCACAGCAAUAUUACGUUUG | 1 (yes)
CAACAGCAAUAUUACGGAGA | 0 (no)
UUAAAGCAAUAUUACGAACC | 1 (yes)

Could you tell me if the measured self-splicing fitness (ln) of CUCGAGCAAUAUUACGAGAG reaches -2 or more?
1 (yes)

Could you tell me if the measured self-splicing fitness (ln) of CCCGAGCAAUAUUACGGGGC reaches -2 or more?
0 (no)

Could you tell me if the measured self-splicing fitness (ln) of AUGCAGCAAUAUUACGGUAA reaches -2 or more?
1 (yes)

Could you tell me if the measured self-splicing fitness (ln) of AUUCAGCAAUAUUACGAAAA reaches -2 or more?
1 (yes)

###

# RUN_DESCRIPTION: self-splicing fitness, log relative to wild type (ln ratio); higher = more splicing; Tetrahymena group I intron in knt gene, E. coli kanamycin selection, DiMSum; sequences stand for … in CUCUCU…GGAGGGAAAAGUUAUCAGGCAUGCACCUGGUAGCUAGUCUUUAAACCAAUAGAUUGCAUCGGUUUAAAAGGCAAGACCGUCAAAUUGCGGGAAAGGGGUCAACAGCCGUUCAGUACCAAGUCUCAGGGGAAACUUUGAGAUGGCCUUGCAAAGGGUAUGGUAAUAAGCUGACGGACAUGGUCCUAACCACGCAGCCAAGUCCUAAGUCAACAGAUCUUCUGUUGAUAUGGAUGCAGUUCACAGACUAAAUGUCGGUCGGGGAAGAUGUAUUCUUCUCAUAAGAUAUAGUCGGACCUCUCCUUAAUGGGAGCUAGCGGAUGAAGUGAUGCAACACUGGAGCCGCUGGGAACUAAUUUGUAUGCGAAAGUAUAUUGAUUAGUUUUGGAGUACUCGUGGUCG
# MEASUREMENT_PARAMETERS: 37 °C
Criterion: self-splicing fitness (ln) meeting or surpassing -1. Met: Criterion met. Not met: Criterion not met.

# example entries with known answers
SEQUENCE_RECORD | LABEL
AGCGAGCAAUAUUACGCAAG | Criterion not met
UGGGAGCAAUAUUACGCGUU | Criterion not met
CAUAAGCAAUAUUACGCUUC | Criterion not met
CGGCAGCAAUAUUACGACGG | Criterion met
GCGCAGCAAUAUUACGGCAU | Criterion met

Now consider a different sequence.
Could you tell me if the measured self-splicing fitness (ln) of CUCCAGCAAUAUUACGACUG reaches -1 or more?
Criterion not met

###

# RUN_DESCRIPTION: self-splicing fitness, log relative to wild type (ln ratio); higher = more splicing; Tetrahymena group I intron in knt gene, E. coli kanamycin selection, DiMSum; sequences stand for … in CUCUCU…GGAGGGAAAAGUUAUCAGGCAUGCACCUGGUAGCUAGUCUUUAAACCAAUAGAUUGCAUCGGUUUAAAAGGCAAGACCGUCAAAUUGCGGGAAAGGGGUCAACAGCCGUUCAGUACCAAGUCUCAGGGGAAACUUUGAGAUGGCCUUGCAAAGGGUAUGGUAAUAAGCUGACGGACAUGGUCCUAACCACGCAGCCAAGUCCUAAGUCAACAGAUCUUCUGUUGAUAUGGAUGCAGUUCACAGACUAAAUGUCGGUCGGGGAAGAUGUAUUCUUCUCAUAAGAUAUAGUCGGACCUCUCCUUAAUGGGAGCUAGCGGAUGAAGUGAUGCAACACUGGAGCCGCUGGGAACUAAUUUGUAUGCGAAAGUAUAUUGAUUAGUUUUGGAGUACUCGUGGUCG
# MEASUREMENT_PARAMETERS: 30 °C
RECORDED_METRIC: self-splicing fitness (ln)

Previously resolved entries follow.
SEQUENCE_RECORD | self-splicing fitness (ln)
GCCGAGCAAUAUUACGUACU | -2.15
GGUCAGCAAUAUUACGUUAA | -1.4

I have this sequence here, CAUUAGCAAUAUUACGUCGG , and I need its recorded self-splicing fitness (ln).
-0.0974

I have this sequence here, GGGUAGCAAUAUUACGGUUU , and I need its recorded self-splicing fitness (ln).
-0.176

I have this sequence here, ACGCAGCAAUAUUACGGUGG , and I need its recorded self-splicing fitness (ln).
-2.52

I have this sequence here, CAUAAGCAAUAUUACGGAUG , and I need its recorded self-splicing fitness (ln).
-3.14

I have this sequence here, CUGAAGCAAUAUUACGGGCG , and I need its recorded self-splicing fitness (ln).
0.0611

I have this sequence here, UUUCAGCAAUAUUACGGCGC , and I need its recorded self-splicing fitness (ln).
-1.11

###

Measured self-splicing fitness (ln), listed per entry for reference.
# RUN_DESCRIPTION: self-splicing fitness, log relative to wild type (ln ratio); higher = more splicing; Tetrahymena group I intron in knt gene, E. coli kanamycin selection, DiMSum; sequences stand for … in CUCUCU…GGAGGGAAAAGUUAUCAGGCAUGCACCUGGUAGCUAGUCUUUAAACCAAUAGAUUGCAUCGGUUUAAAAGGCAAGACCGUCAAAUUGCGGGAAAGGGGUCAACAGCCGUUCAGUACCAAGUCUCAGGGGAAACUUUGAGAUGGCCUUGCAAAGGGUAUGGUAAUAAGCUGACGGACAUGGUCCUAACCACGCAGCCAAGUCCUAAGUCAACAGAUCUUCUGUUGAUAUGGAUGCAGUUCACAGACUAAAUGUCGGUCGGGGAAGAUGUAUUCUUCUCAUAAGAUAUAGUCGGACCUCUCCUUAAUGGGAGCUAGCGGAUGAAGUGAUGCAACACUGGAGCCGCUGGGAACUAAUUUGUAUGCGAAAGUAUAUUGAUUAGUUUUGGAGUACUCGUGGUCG
# MEASUREMENT_PARAMETERS: 30 °C
Output: the number by itself.

Previously resolved entries follow.
SEQUENCE_RECORD | self-splicing fitness (ln)
GGAAAGCAAUAUUACGCGCA | -0.291
GGUCAGCAAUAUUACGGGGU | -3.37
GCUAAGCAAUAUUACGAGCA | -1.72
CUUCAGCAAUAUUACGCGGG | -3.7
UGAGAGCAAUAUUACGGCUC | -3.55
GUAUAGCAAUAUUACGCAGG | -3.15
CAUCAGCAAUAUUACGACAA | -2.31
CGUAAGCAAUAUUACGAGUU | -3.38

I have this sequence here, UACUAGCAAUAUUACGGGUC , and I need its recorded self-splicing fitness (ln).
-2.68

I have this sequence here, CAGUAGCAAUAUUACGCCAG , and I need its recorded self-splicing fitness (ln).
-0.7

I have this sequence here, UUCUAGCAAUAUUACGGAGG , and I need its recorded self-splicing fitness (ln).
-3.17

I have this sequence here, UAUAAGCAAUAUUACGAUUU , and I need its recorded self-splicing fitness (ln).
-1.43

I have this sequence here, CAUAAGCAAUAUUACGUAAG , and I need its recorded self-splicing fitness (ln).
0.111
